Test system: HSE
Test: siRNA transfection array, HSE EGFP reporter, HepG2 cells
Assay type: cell-based, human
Details: HSE reporter, 48 h culture
This section presents substances with their documented Relative intensity ratio of EGFP fluorescence against Scramble II Duplex, HSE values.
Entry rule: numbers only, all in %.

{"Substance": "RARA siRNA: siRNA SEQ ID NO: 65 (Dharmacon), targets human retinoic acid receptor alpha NM_000964 (GUACUGCCGACUGCAGAAG; chemistry not given here)", "Value Measured": 108.5}
{"Substance": "GR siRNA: siRNA SEQ ID NO: 58 (Dharmacon), targets human glucocorticoid receptor alpha M10901 (CUCGAAUGAGGACUGCAAG; chemistry not given here)", "Value Measured": 110.1}
{"Substance": "CREB siRNA: siRNA SEQ ID NO: 55 (Dharmacon), targets human CREB M27691 (CAGGAGUCAGUGGAUAGUG; chemistry not given here)", "Value Measured": 125.9}

Now look at this entry.
Prompt line: Using the record for HSF-4 siRNA: siRNA SEQ ID NO: 61 (Dharmacon), targets human heat shock transcription factor 4 D87673 (GUCGCCUUCUACUUACAGC; chemistry not given here) , report its Relative intensity ratio of EGFP fluorescence against Scramble II Duplex, HSE.
Response line: 104.3
